Attribute: Kochia plant response rating (0-100)
Tested on: kochia (Bassia scoparia)
Assay Protocol: Test A postemergence application, visual injury rating 0-100
Assay type: in vivo
Test Settings: 62 g ai/ha, postemergence, 10 days, 0 = no effect, 100 = complete control

| Molecule | Kochia plant response rating (0-100) |
| --- | --- |
| COC(=O)C1CC(NC(=O)C2(C)CN(c3cc(F)cc(Cl)c3)C(=O)O2)C1 (stereo not shown) [Compound 145] | 90 |
| C=CC1(C(=O)NC2CC(C(=O)OC)C2)CN(c2cc(F)cc(F)c2)C(=O)O1 (stereo not shown) [Compound 172] | 90 |
| COC(=O)C1CC(NC(=O)C2(C)CN(c3cc(F)cc(F)c3)C(=O)O2)C1 (stereo not shown) [Compound 118] | 70 |
| CC1(C(=O)NC2CC=C(C(=O)NS(=O)(=O)C(C)(C)C)C2)CN(c2cc(F)cc(F)c2)C(=O)O1 (racemic) [Compound 91] | 40 |

----------
Attribute: Galium plant response rating (0-100)
Tested on: galium (catchweed bedstraw, Galium aparine)
Assay Protocol: Test A postemergence application, visual injury rating 0-100
Type: in vivo
Test Settings: 62 g ai/ha, postemergence, 10 days, 0 = no effect, 100 = complete control
Readout Name: Galium plant response rating (0-100)

| Compound | Observed |
| --- | --- |
| CC1(C(=O)NC2CC=C(C(=O)O)C2)CN(c2cc(Cl)cc(Cl)c2)C(=O)O1 (stereo not shown) [Compound 158] | 90 |
| COC(=O)C1CC(NC(=O)C2(C)CN(c3cc(F)cc(F)c3)C(=O)O2)C1 (stereo not shown) [Compound 130] | 90 |
| CC1(C(=O)NC2C=CC(C(=O)O)C2)CN(c2cc(F)cc(F)c2)C(=O)O1 (stereo not shown) [Compound 138] | 90 |
| COC(=O)C1=CCC(NC(=O)C2(C)CN(c3cc(Cl)c(F)c(Cl)c3)C(=O)O2)C1 (stereo not shown) [Compound 129] | 80 |

----------
Attribute: Corn plant response rating (0 to 100 scale)
System: corn (Zea mays)
Assay Protocol: Test A preemergence soil spray, visual injury rating 0-100
Assay type: in vivo
Test Settings: 500 g ai/ha, 10 days, 0 = no effect, 100 = complete control
Readout Name: Corn plant response rating (0 to 100 scale)

| Compound | Observed |
| --- | --- |
| CC1(C(=O)NC2C=CC(C(=O)NS(C)(=O)=O)C2)CN(c2cc(F)cc(F)c2)C(=O)O1 (centres unmarked) | 80 |
| CC1(C(=O)NC2C=CC(C(=O)OCCS(C)(=O)=O)C2)CN(c2cc(Cl)cc(Cl)c2)C(=O)O1 (centres unmarked) | 90 |
| CCOC(=O)C1C=CC(NC(=O)C2(C)CN(c3cc(Cl)cc(Cl)c3)C(=O)O2)C1 (centres unmarked) | 90 |
| COCCOC(=O)C1C=CC(NC(=O)C2(C)CN(c3cc(F)cc(F)c3)C(=O)O2)C1 (centres unmarked) | 90 |
| CNC(=O)C1C=CC(NC(=O)C2(C)CN(c3cc(Cl)cc(Cl)c3)C(=O)O2)C1 (centres unmarked) | 70 |

----------
Attribute: Barnyardgrass plant response rating
System: barnyardgrass (Echinochloa crus-galli)
Assay Protocol: Test A preemergence soil spray, visual injury rating 0-100
Format: in vivo
Test Settings: 16 g ai/ha, 0 to 100 scale, 10 days
From the text: […]

| Molecule | Barnyardgrass plant response rating |
| --- | --- |
| CC1(C(=O)NC2CC=C(C(=O)NS(=O)(=O)c3ccccc3)C2)CN(c2cc(F)cc(F)c2)C(=O)O1 (racemic) | 0 |
| CCOC(=O)C1C=CC(NC(=O)C2(C)CN(c3cc(C)cc(C)c3)C(=O)O2)C1 (stereo not shown) | 30 |
| COC(=O)C1CC(NC(=O)C2(C)CN(c3cc(F)cc(Cl)c3)C(=O)O2)C1 (stereo not shown) | 20 |
| CC1(C(=O)NC2CC=C(C(=O)NS(=O)(=O)C(C)(C)C)C2)CN(c2cc(F)cc(F)c2)C(=O)O1 (racemic) | 0 |
| COC(=O)C1=CCC(NC(=O)C2(C)CN(c3cc(Cl)c(F)c(Cl)c3)C(=O)O2)C1 (stereo not shown) | 0 |
| CC(C)COC(=O)C1=CCC(NC(=O)C2(C)CN(c3cc(F)cc(Cl)c3)C(=O)O2)C1 (stereo not shown) | 0 |
| CC1(C(=O)NC2CC(C(=O)O)C2)CN(c2cc(F)cc(F)c2)C(=O)O1 (stereo not shown) | 0 |

Data credit: patent US20260285850A1
